Reference for the values: ChEMBL document CHEMBL3988442

molecular target: Shiga toxin 2 (Escherichia coli O157:H7) (UniProt P09385+P09386); assay: E. coli 0.157:H7 Shiga Toxin SOP - stx2 screening assay; format: functional; design: scale not given: direction of the effect not stated beside the values; conditions: 30 µM
readoutLabel: Percent Effect (%)
Report as a plain number; the unit % is understood.

Examples with their reported Percent Effect follow.
[[record]]
molecule = "CC(C)[C@H](NC(=O)NC1CCS(=O)(=O)C1)C(=O)NCc1cccnc1 (stereo not given in full)"
subjectoftest = "Shiga toxin 2 (Escherichia coli O157:H7) (UniProt P09385+P09386)"
readoutlabel = "Percent Effect"
unitstext = "%"
endpointvalue = -28.7

[[record]]
molecule = "Cc1nc(-c2ccccc2)n(CC(=O)NCC(C)C)n1"
subjectoftest = "Shiga toxin 2 (Escherichia coli O157:H7) (UniProt P09385+P09386)"
readoutlabel = "Percent Effect"
unitstext = "%"
endpointvalue = 22

[[record]]
molecule = "Cc1nn(C)c(C)c1C1COCCN1C(=O)c1n[nH]c2ccccc12 (stereo not given)"
subjectoftest = "Shiga toxin 2 (Escherichia coli O157:H7) (UniProt P09385+P09386)"
readoutlabel = "Percent Effect"
unitstext = "%"
endpointvalue = -15.4

[[record]]
molecule = "COCCN1CCC(NCc2ccc(C#N)cc2)C1 (stereo not given)"
subjectoftest = "Shiga toxin 2 (Escherichia coli O157:H7) (UniProt P09385+P09386)"
readoutlabel = "Percent Effect"
unitstext = "%"
endpointvalue = -49.3

[[record]]
molecule = "COc1ccc(C)cc1S(=O)(=O)NCC(c1cccn1C)N(C)C (stereo not given)"
subjectoftest = "Shiga toxin 2 (Escherichia coli O157:H7) (UniProt P09385+P09386)"
readoutlabel = "Percent Effect"
unitstext = "%"
endpointvalue = 2.58

[[record]]
molecule = "Clc1ccccc1C1(c2ccnc(CC3CC3)n2)CCNCC1"
subjectoftest = "Shiga toxin 2 (Escherichia coli O157:H7) (UniProt P09385+P09386)"
readoutlabel = "Percent Effect"
unitstext = "%"
endpointvalue = -10.7


// lookup Percent Effect | system=Shiga toxin 2 (Escherichia coli O157:H7) (UniProt P09385+P09386) | key= CC(=O)NC(C)CC(=O)NCc1cccnc1Oc1ccccc1C (stereo not given)
2.41
